- tgt: human prostate specific membrane antigen (PSMA), full-length, on cells (human, UniProt Q04609 1-750)
- Sequence (Q04609 whole entry): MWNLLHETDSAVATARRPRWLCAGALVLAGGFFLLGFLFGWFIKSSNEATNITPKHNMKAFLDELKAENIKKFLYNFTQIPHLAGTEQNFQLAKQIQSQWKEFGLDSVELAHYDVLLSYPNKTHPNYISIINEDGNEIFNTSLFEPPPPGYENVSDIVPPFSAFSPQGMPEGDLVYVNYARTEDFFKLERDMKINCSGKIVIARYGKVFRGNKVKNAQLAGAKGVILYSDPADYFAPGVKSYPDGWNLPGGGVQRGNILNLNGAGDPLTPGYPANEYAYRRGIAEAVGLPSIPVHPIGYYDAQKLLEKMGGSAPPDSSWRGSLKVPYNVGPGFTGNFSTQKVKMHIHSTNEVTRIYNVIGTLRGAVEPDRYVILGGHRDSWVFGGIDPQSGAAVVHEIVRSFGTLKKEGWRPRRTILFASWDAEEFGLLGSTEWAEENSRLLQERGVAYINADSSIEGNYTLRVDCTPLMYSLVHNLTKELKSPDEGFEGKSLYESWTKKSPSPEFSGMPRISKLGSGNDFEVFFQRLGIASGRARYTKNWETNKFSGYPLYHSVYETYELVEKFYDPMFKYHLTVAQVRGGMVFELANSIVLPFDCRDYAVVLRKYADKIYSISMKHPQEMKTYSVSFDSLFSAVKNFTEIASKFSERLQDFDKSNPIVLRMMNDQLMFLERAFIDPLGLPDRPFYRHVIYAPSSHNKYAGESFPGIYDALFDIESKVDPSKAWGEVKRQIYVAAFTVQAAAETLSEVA
- experiment: cell-based or functional assay
readout-label: Mean IC50, cytotoxicity on DU145 PSMA cells, 48 h (nM)

{"columns": ["binder", "reported"],
 "data": [
  ["HiPEG A-1-B-His6 val-cit-PAB-MMAE (bispecific antibody, HiPEG val-cit-PAB-MMAE attached via the C-terminal His6-tag, DAR 1) EVQLVESGGGVVQPGRSLRLSCAASGFSFSGYGMHWVRQAPGKGLEWVAYISYDGSNKYYADSVKGRFTISRDNSKNTLYLQMNSLRAEDTAVYYCAKDPAWGLRLGESSSYDFDIWGQGTMVTVSSGGGGSGGGGSEVQLLESGGGLVQPGGSLRLSCAASGFSFSSYAMSWVRQAPGKGLEWVSSIGENDGTTDYADSVKGRFTISRDNSKSMLYLQMNSLRVEDTAVYYCVKDGVHWGQGTLVTVSS", 0.67],
  ["HiPEG A-2-A-His6 val-cit-PAB-MMAE (VHH, HiPEG val-cit-PAB-MMAE attached via the C-terminal His6-tag, DAR 1) EVQLVESGGGVVQPGRSLRLSCAASGFSFSGYGMHWVRQAPGKGLEWVAYISYDGSNKYYADSVKGRFTISRDNSKNTLYLQMNSLRAEDTAVYYCAKDPAWGLRLGESSSYDFDIWGQGTMVTVSSGGGGSGGGGSGGGGSGGGGSGGGGSGGGGSEVQLVESGGGVVQPGRSLRLSCAASGFSFSGYGMHWVRQAPGKGLEWVAYISYDGSNKYYADSVKGRFTISRDNSKNTLYLQMNSLRAEDTAVYYCAKDPAWGLRLGESSSYDFDIWGQGTMVTVSSAAAHHHHHH", 0.32]
]}
